B1: Gamma-crystallin D, residues 90 to 170; numbered along this chain, P07320 (parent)
chain: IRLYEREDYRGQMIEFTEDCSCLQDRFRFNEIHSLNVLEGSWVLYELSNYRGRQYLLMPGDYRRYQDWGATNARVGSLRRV

# Variants of: B1
# Procedure Details: abundance fitness (aPCA) (normalised: wild type 0, dead -1); higher = more abundant; growth selection in yeast, the domain comes from the species named
# Experimental Setup: Homo sapiens
abundance fitness below -0.09 gives F; abundance fitness at or above it gives T.

* R28L | T
* D8L | T
* N36V | F
* T17M | F
* R6T | T
* E46A | T
* D19K | F
* W42I | T
* E15G | T
* P59K | F
* D19H | T
* Q12M | T
* E46H | F
* I32W | T
* Y50K | F
* F16V | T
* Q24Y | T
* D19F | T
* N49I | F
* D8K | T
* Q12E | F
* Q12G | T
* R28K | T
* E31F | F
* E7I | F
* L23G | F
* H33L | T
* F27G | F
* G40M | F
* G40P | T
* L35F | T
* V43S | T
* E5V | T
* M13C | F
* Q54P | T
* T17A | F
* T17Q | F
* R53G | T
* L47V | F
* S34V | F
* R26A | T
* R51V | T
* I32L | T
* S21I | T
* H33E | T
* R28G | T
* E18Q | T
* L56Q | T
* F27H | F
* D8E | T
* L56R | T
* Y55W | T
* E15T | T
* Y9I | T
* C20S | T
* Q24V | T
* Y50L | F
* N49F | F
* S41E | T
* Q54C | F
* F29G | T
* L38I | T
* G11W | F
* E5N | F
* E5D | T
* L23T | T
* E31V | F
* R53W | F
* T17N | T
* S48D | T
* R6F | F
* E31P | T
* R53Y | T
* S21W | F
* Y9V | F
* E5Y | T
* M58H | T
* D19R | F
* Y50M | F
* E39A | T
* C20Y | T
* M13F | T
* E39I | T
